Provenance of the data: patent US8178506B2

Recorded Follistatin (% UTC), one value per entry.
System: follistatin
Assay Summary: Follistatin mRNA expression in HepG2 cells
Format: cell-based, human
Condition Details: Experiment 3, basal (no insulin), HepG2 cells, 48 hours post-transfection
In the oligonucleotide strings, read from the 5' end, every base follows the letter of its sugar. An asterisk marks phosphorothioate; unmarked linkages are phosphodiester. Other units and linkages are bracketed, terminal groups are in braces. A string of capitals states the bases alone. e = 2'-O-(2-methoxyethyl) (MOE); [5mC] = 5-methylcytosine; d = 2'-deoxy (DNA)
The response must be a number in % UTC with no trailing unit.

Substance: 328677 (eT*e[5mC]*e[5mC]*eT*eG*dG*dA*dT*dG*dA*dT*dA*dT*d[5mC]*dT*eA*e[5mC]*e[5mC]*eT*e[5mC]; antisense) [compound 328677]
Target Desc: follistatin
Units Text: % UTC
Follistatin (% UTC): 130
--
Substance: 341813 (antisense AGACACGTGCACTGTAGA; all 2'-MOE, all phosphorothioate, methylation of C not given here) [compound 341813]
Target Desc: follistatin
Units Text: % UTC
Follistatin (% UTC): 100
--
Substance: 328759 (antisense eG*eA*eG*eG*eG*dA*dT*dT*dG*dT*dA*dT*dG*dA*dA*e[5mC]*eA*eT*e[5mC]*eT) [compound 328759]
Target Desc: follistatin
Units Text: % UTC
Follistatin (% UTC): 266
--
Substance: 186515 (antisense eA*eG*eG*eT*eA*dG*d[5mC]*dT*dT*dT*dG*dA*dT*dT*dA*eT*eG*eT*eA*eA) [compound 186515]
Target Desc: follistatin
Units Text: % UTC
Follistatin (% UTC): 67
--
Substance: 328773 (antisense eT*eA*e[5mC]*eT*eT*dT*dA*d[5mC]*dT*d[5mC]*d[5mC]*dA*dA*dG*dG*eT*eT*eT*eT*eA) [compound 328773]
Target Desc: follistatin
Units Text: % UTC
Follistatin (% UTC): 131
--
Substance: 328779 (antisense eT*eG*eT*eT*eT*dG*dT*d[5mC]*dT*d[5mC]*d[5mC]*dA*dA*dG*dA*eA*eA*e[5mC]*eG*eT) [compound 328779]
Target Desc: follistatin
Units Text: % UTC
Follistatin (% UTC): 109

Suppose we examine the substance 328685 (e[5mC]*eG*eG*e[5mC]*e[5mC]*dG*dG*dA*dG*d[5mC]*d[5mC]*dA*dT*dA*dG*eA*e[5mC]*eT*e[5mC]*eG; antisense) [compound 328685] ; what Follistatin (% UTC) value has been reported?
100

Suppose we examine the substance 328765 (antisense eG*eA*e[5mC]*eA*eA*dA*d[5mC]*dT*d[5mC]*dA*dG*d[5mC]*dT*dA*dT*eA*eT*eT*eG*eT) [compound 328765] ; what Follistatin (% UTC) value has been reported?
87

Suppose we examine the substance 340362 (antisense GACTGTTGAATCTCATGGCA; 5-10-5 gapmer, wing sugar and linkages not given here, further chemistry not given here) [compound 340362] ; what Follistatin (% UTC) value has been reported?
123

====

Test system: BJ, B16-F10, T47D, T47Dp53 and HeLa cells
Assay Summary: Cell cycle assay (propidium iodide flow cytometry), cell line panel
Type: cell-based
Condition Details: 150 nM oligomeric compound, 4.5 μg/ml LIPOFECTIN, after 72 hours, propidium iodide flow cytometry
In the oligonucleotide strings, read from the 5' end, every base follows the letter of its sugar. An asterisk marks phosphorothioate; unmarked linkages are phosphodiester. Other units and linkages are bracketed, terminal groups are in braces. A string of capitals states the bases alone. e = 2'-O-(2-methoxyethyl) (MOE); [5mC] = 5-methylcytosine; d = 2'-deoxy (DNA)
Recorded G1 (percentage of cells in phase of the cell cycle), one value per entry.
The response must be a number in % with no trailing unit.

Answered examples (10):
Substance: 328423 (antisense e[5mC]*e[5mC]*eA*e[5mC]*eA*dT*dA*dT*dA*d[5mC]*dA*dT*dA*dT*dA*eT*eA*e[5mC]*eG*e[5mC]) [compound 328423]
Units Text: %
Endpoint Result: 52.9

Substance: 327934 (antisense eG*eG*eT*eA*e[5mC]*eA*eA*eT*e[5mC]*eA*eA*e[5mC]*eG*eG*eT*e[5mC]*eG*eA*eT*eG*eG*eT) [compound 327934]
Units Text: %
Endpoint Result: 54.4

Substance: 328424 (antisense eA*eG*eG*eA*eA*dG*d[5mC]*dA*d[5mC]*dA*d[5mC]*dA*dT*dT*dA*eT*e[5mC]*eA*e[5mC]*eA) [compound 328424]
Units Text: %
Endpoint Result: 61.9

Substance: 327902 (antisense eG*eG*e[5mC]*eT*eG*eT*e[5mC]*eA*eA*eT*eT*e[5mC]*eA*eT*eA*eG*eG*eT*e[5mC]*eA*eG) [compound 327902]
Units Text: %
Endpoint Result: 50.7

Substance: 328644 (eG*eA*e[5mC]*eA*eA*dG*dG*dT*dG*dG*dG*dA*dG*d[5mC]*dG*eA*eG*eT*eG*eG; antisense) [compound 328644]
Units Text: %
Endpoint Result: 58.4

Substance: 327919 (antisense eG*eA*eA*eA*e[5mC]*e[5mC]*e[5mC]*eA*eG*e[5mC]*eA*eG*eA*e[5mC]*eA*eA*eT*eG*eT*eA*eG*e[5mC]*eT) [compound 327919]
Units Text: %
Endpoint Result: 54.3

Substance: 327933 (antisense eA*eA*eG*eG*eG*eA*eT*eT*e[5mC]*e[5mC]*eT*eG*eG*eG*eA*eA*eA*eA*e[5mC]*eT*eG*eG*eA*e[5mC]) [compound 327933]
Units Text: %
Endpoint Result: 49.6

Substance: 327901 (antisense eT*eG*eA*eG*e[5mC]*eT*eA*e[5mC]*eA*eG*eT*eG*e[5mC]*eT*eT*e[5mC]*eA*eT*e[5mC]*eT*e[5mC]*eA) [compound 327901]
Units Text: %
Endpoint Result: 34.7

Substance: 327941 (antisense eA*eA*e[5mC]*e[5mC]*e[5mC]*eA*e[5mC]*e[5mC]*eG*eA*e[5mC]*eA*eG*e[5mC]*eA*eA*eT*eG*eA*eA*eT*eG*eT*eT) [compound 327941]
Units Text: %
Endpoint Result: 57.2

Substance: 328362 (eT*eG*eT*eG*eT*dT*dT*dT*d[5mC]*dT*dG*dA*d[5mC]*dT*d[5mC]*eA*eG*eT*e[5mC]*eA) [compound 328362]
Units Text: %
Endpoint Result: 51.2

Suppose we examine the substance 327908 (antisense e[5mC]*eA*eA*eT*eG*e[5mC]*eA*eA*e[5mC]*eT*eA*e[5mC]*eA*eA*eT*eG*e[5mC]*eA*e[5mC]) [compound 327908] ; what G1 (percentage of cells in phase of the cell cycle) value has been reported?
55.4

Suppose we examine the substance 327904 (antisense eA*e[5mC]*eT*e[5mC]*eA*e[5mC]*e[5mC]*eG*eA*e[5mC]*eA*eG*e[5mC]*eG*eT*eT*eG*eA*eA*eT*eG*eT*eT) [compound 327904] ; what G1 (percentage of cells in phase of the cell cycle) value has been reported?
54.4

Suppose we examine the substance 327903 (antisense eA*eA*e[5mC]*eT*eA*eT*eA*e[5mC]*eA*eA*e[5mC]*e[5mC]*eT*eA*e[5mC]*eT*eA*e[5mC]*e[5mC]*eT*e[5mC]*eA) [compound 327903] ; what G1 (percentage of cells in phase of the cell cycle) value has been reported?
53.7

Suppose we examine the substance 328697 (eG*e[5mC]*eT*eT*eG*dT*d[5mC]*d[5mC]*dA*d[5mC]*dA*d[5mC]*dA*dG*dT*eT*e[5mC]*eA*eA*e[5mC]; antisense) [compound 328697] ; what G1 (percentage of cells in phase of the cell cycle) value has been reported?
57.6

Suppose we examine the substance 327907 (antisense eA*eG*e[5mC]*e[5mC]*eT*eA*eT*e[5mC]*e[5mC]*eT*eG*eG*eA*eT*eT*eA*e[5mC]*eT*eT*eG*eA*eA) [compound 327907] ; what G1 (percentage of cells in phase of the cell cycle) value has been reported?
49.5

====

Test system: HeLa cells
Assay Summary: Cell cycle assay in HeLa cells
Assay type: cell-based, human
Condition Details: HeLa cells, 150 nM oligomeric compound, 24 hours, relative to untreated control (UTC = 100)
In the oligonucleotide strings, read from the 5' end, every base follows the letter of its sugar. An asterisk marks phosphorothioate; unmarked linkages are phosphodiester. Other units and linkages are bracketed, terminal groups are in braces. A string of capitals states the bases alone. e = 2'-O-(2-methoxyethyl) (MOE); [5mC] = 5-methylcytosine; d = 2'-deoxy (DNA)
Value Kind: % cells aneuploid (%)
The response must be a number in % with no trailing unit.

Substance: 327904 (antisense eA*e[5mC]*eT*e[5mC]*eA*e[5mC]*e[5mC]*eG*eA*e[5mC]*eA*eG*e[5mC]*eG*eT*eT*eG*eA*eA*eT*eG*eT*eT) [compound 327904]
Target Desc: HeLa cells
Units Text: %
Endpoint Result: 89

Substance: 327903 (antisense eA*eA*e[5mC]*eT*eA*eT*eA*e[5mC]*eA*eA*e[5mC]*e[5mC]*eT*eA*e[5mC]*eT*eA*e[5mC]*e[5mC]*eT*e[5mC]*eA) [compound 327903]
Target Desc: HeLa cells
Units Text: %
Endpoint Result: 98

Suppose we examine the substance 328647 (eG*eG*eA*eG*eT*dA*dG*dA*dT*dG*dA*dT*dG*dG*dT*eT*eA*eG*e[5mC]*e[5mC]; antisense) [compound 328647] ; what % cells aneuploid value has been reported?
140

Suppose we examine the substance 345395 (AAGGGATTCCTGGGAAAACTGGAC; sugars from the 5' end e5 d10 e9, all phosphorothioate, methylation of C not given here) [compound 345395] ; what % cells aneuploid value has been reported?
77

Suppose we examine the substance 338741 (antisense GCTTCACAATTAGACCATCC; all 2'-MOE, all phosphorothioate, methylation of C not given here) [compound 338741] ; what % cells aneuploid value has been reported?
166

Suppose we examine the substance 328744 (antisense e[5mC]*eG*eG*eA*eT*d[5mC]*d[5mC]*dT*dG*dT*dT*dA*d[5mC]*d[5mC]*dT*e[5mC]*eA*e[5mC]*e[5mC]*eA) [compound 328744] ; what % cells aneuploid value has been reported?
111
